Measured IC50 values are reported for all entries that follow.
system: A549; test: Antiproliferative activity against human A549 cells measured after 48 hrs by MTT assay; type: functional, cell-based; conditions: A549, 48 h
Answer format: numeric, µM implied, no suffix.

>  <COMPOUND>
C[C@H]1[C@H](OC(=O)CCC(=O)OCCn2ccnc2[N+](=O)[O-])O[C@@H]2O[C@@]3(C)CC[C@H]4[C@H](C)CC[C@@H]1[C@@]24OO3

>  <ASSAY_VALUE>
14

$$$$

Please look at the following compound next.
input: Any idea what IC50 was measured for COc1ccc2[nH]cc(C(=O)OC3O[C@@H]4O[C@@]5(C)CC[C@H]6[C@H](C)CC[C@@H]([C@H]3C)[C@@]46OO5)c2c1 (stereo partly drawn) ?
output: 13.4
